Assay: Ratio of median survival times for non-survivors at dose 200 mg/kg in exp1; t= toxic
Type: ADME, organism-based
Design: dose 200 mg/kg
Settings: in vivo
Endpoint: Ratio

CCOS(=O)(=O)CS(C)(=O)=O :: Toxic
CS(=O)(=O)CS(=O)(=O)OCCCl :: Toxic
O=S(=O)(CCl)OCCBr :: Toxic
CS(=O)(=O)CS(=O)(=O)OCCBr :: Toxic

----------
Can you tell me Ratio for the items I'm about to list?
Test: Ratio of median survival times for non-survivors at dose 100 mg/kg in exp1
Type: functional
Set-up: unit: %
Reply: number alone, nothing else.

The compound listed as CCOS(=O)(=O)CS(C)(=O)=O shows Ratio equal to 160

The compound listed as CS(=O)(=O)CS(=O)(=O)OCCCl shows Ratio equal to 151

The compound listed as CS(=O)(=O)CS(=O)(=O)OCCBr shows Ratio equal to 224

The compound listed as O=S(=O)(CCl)OCCBr shows Ratio equal to 114

The compound listed as CS(=O)(=O)OCCBr shows Ratio equal to 106

----------
Can you tell me Median survival time for the items I'm about to list?
Tested on: Mus musculus
Test: Median survival time of the untreated control groups, in which there are no 30-day survivors at dose 200 mg/kg in exp1
Assay type: functional
Reply: number alone, nothing else.

The compound listed as O=S(=O)(CCl)OCCBr shows Median survival time equal to 11.1

The compound listed as CS(=O)(=O)CS(=O)(=O)OCCBr shows Median survival time equal to 10.5

The compound listed as CCOS(=O)(=O)CS(C)(=O)=O shows Median survival time equal to 11.2

meta.source: ChEMBL document CHEMBL1122744
